Test system: mock-infected MT-4 cells
Assay: MTT cytotoxicity assay
Format: cell-based
QUANTITY MEASURED: CC50

>>> endpoint_value("Cc1cn([C@H]2C[C@H](N=[N+]=[N-])[C@@H](CO)O2)c(=O)[nH]c1=O [AZT, reference compound]")
"> 100 µM"

Values compiled from paper PMC7577350.
